Tested on: SN12C
Experiment: NCI tumour cell line growth inhibition, 48 h
Activity calls are given as the source filed them. Rule as the data show it: active = GI50 up to about 1.1 µM and inactive = higher.
Entries and their GI50 values follow.
Property Label: GI50

1. Cc1ccc(S(=O)(=O)N2CCN(S(=O)(=O)c3ccc(C)cc3)Cc3ccccc3C2)cc1 :: 53.2 µM (inactive)
2. CCCC1(NC(=O)C(F)(F)F)CC(OC)OC2COC(c3ccccc3)OC21 (stereo not given) :: > 100 µM (inactive)
3. CCn1c2ccc(C(=O)CCCN3CCCCC3)cc2c2cc(C(=O)CCCN3CCCCC3)ccc21 :: 4.16 µM (inactive)
4. Cc1cc(N(CCC#N)CCC#N)ccc1/C=C\C(=O)Nc1ccccc1 :: > 100 µM (inactive)
5. CC1=CC(=O)c2ccc3c4ccccc4n(C)c3c2C1=O :: > 69 µM (inactive)

---

System: SF-295
Experiment: NCI tumour cell line growth inhibition, 48 h
Calls of active or inactive are those of the source. No stated cut-off is given here; in the data, active = GI50 up to about 1.1 µM and inactive = higher.
Property Label: GI50

1) CCOP(=O)(OCC)C1CC(O)C(=O)N1 (stereo unspecified) :: > 100 µM (inactive)
2) CC1COS(=O)N1c1ccccc1 (stereo unspecified) :: > 100 µM (inactive)
3) CCN(CC)CCCC(C)Nc1cc(-c2ccccc2)nc2cc(OC)ccc12 (stereo unspecified) :: 8.79 µM (inactive)
4) CN(C)c1n/c(=N/c2ccc(/N=c3\nc(N(C)C)ss3)cc2)ss1 :: 39.8 µM (inactive)
5) CCOP(=O)(/C=C\n1ccc(N)nc1=O)OCC :: > 100 µM (inactive)
6) O=C1CCCc2c1c1c(n2Cc2ccccc2)-c2ccccc2C1=O :: 15.7 µM (inactive)

---

Test system: SF-268
Experiment: NCI tumour cell line growth inhibition, 48 h
The source made the active and inactive calls. No stated cut-off is given here; in the data, active = GI50 up to about 1.1 µM and inactive = higher.
Property Label: GI50

1) O=C(NNC(=S)Nc1ccccc1)c1csc(NC(=S)NC2CCCCC2)n1 :: 99.3 µM (inactive)
2) COc1ccccc1NC(=O)C1=C(C)NC(C)=C(C(=O)Nc2ccccc2OC)C1c1ccc([N+](=O)[O-])cc1 :: > 100 µM (inactive)
3) CCOC(=O)CSc1c(C(=O)OCC)c(=O)n(-c2ccccc2)c(=S)n1-c1ccccc1 :: > 100 µM (inactive)
4) O=Cc1[nH]c(=O)[nH]c(=O)c1CCl :: > 59.3 µM (inactive)
5) CSc1c(C#N)c(O)n(-c2ccc(Cl)cc2)c(=O)c1C#N :: > 100 µM (inactive)
6) CCCCOC(=O)NC(Nc1ccc(S(=O)(=O)Nc2ncccn2)cc1)(C(F)(F)F)C(F)(F)F :: > 100 µM (inactive)
7) C=CCc1cc(-c2cc(CC=C)c(O)c(CN(CCCl)CCCl)c2)cc(CN(CCCl)CCCl)c1O :: 12.7 µM (inactive)
8) C/C(=C\CCC1=CC(=O)OC1)CC[C@@H]1[C@H]2C(=O)CC(C)[C@@]3(C)CC[C@]1(C)[C@@]23C (stereo not given in full) :: > 10 µM (inactive)
9) CC1CNC(c2ccc(CN3CCC(CCCC4CCN(Cc5ccc(C6=NC(C)CN6)cc5)CC4)CC3)cc2)=N1 (stereo not given) :: > 100 µM (inactive)
10) CCCCC(CCCC)=NNC(=S)SC :: 34.3 µM (inactive)

---

Test system: DU-145
Experiment: NCI tumour cell line growth inhibition, 48 h
The source made the active and inactive calls. Rule as the data show it: active = GI50 up to about 1.1 µM and inactive = higher.
Entries and their GI50 values follow.
Property Label: GI50

1) O=C(CCCn1ccnc1[N+](=O)[O-])NCCn1ccnc1 :: > 100 µM (inactive)
2) COC(=O)C1(C(=O)OC)Cc2ccc(C)cc2C2=C1C(=O)c1ccccc1C2=O :: 20.2 µM (inactive)
3) FC(F)(F)C(C1=NC(C(F)(F)F)(C(F)(F)F)N=C(N2CCOCC2)O1)C(F)(F)F :: 35.5 µM (inactive)
4) CCCCOC(=O)NC(Nc1ccc(S(=O)(=O)Nc2ncccn2)cc1)(C(F)(F)F)C(F)(F)F :: > 100 µM (inactive)
5) O=C(NC12CC3CC(CC(C3)C1)C2)n1cnc2c(Cl)ncnc21 :: 24.3 µM (inactive)

---

Entries and their GI50 values follow.
System: NCI-H522
Experiment: NCI tumour cell line growth inhibition, 48 h
Active and inactive are the calls of the source. No stated cut-off is given here; in the data, active = GI50 up to about 1.1 µM and inactive = higher.
Property Label: GI50

1) S=C(CSc1ccccc1)Nc1cccc2ccccc12 :: 20.9 µM (inactive)
2) O=C1C(=Cc2ccc(F)cc2)C(=O)c2ccccc21 :: > 100 µM (inactive)
3) COc1cc(OC)c(/C=C\c2ccnc3ccccc23)c(OC)c1 :: 3.76 µM (inactive)
4) Cc1cc(N(CCCCl)CCCCl)ccc1/C=N/c1cccc(Cl)c1 :: 17.5 µM (inactive)
5) CC(NC(=O)c1ccccc1)(C(=O)O)C(=O)O :: > 100 µM (inactive)
6) S=C1c2cc(Cl)ccc2N=C(NC2CCCC2)C2CSCN12 (configuration not stated) :: > 100 µM (inactive)
7) CC(C)OP(=O)(OC(C)C)C(C)(C)O :: > 100 µM (inactive)

---

Test system: HCT-116
Experiment: NCI tumour cell line growth inhibition, 48 h
Activity calls are given as the source filed them. Rule as the data show it: active = GI50 up to about 1.1 µM and inactive = higher.
Entries and their GI50 values follow.
Property Label: GI50

1) C=CCN1C(=O)/C(=C/c2cccs2)N=C1SC/C=C/C :: 26.3 µM (inactive)
2) NC(=O)c1ccc(C(=O)Nc2ccc([As](=O)(O)O)cc2)cc1 :: > 100 µM (inactive)
3) N#CCC(=O)N/N=C(/C(=O)Nc1ccccc1)C1C(=O)N(c2ccccc2)N=C1N (stereo unspecified) :: > 100 µM (inactive)
4) O=C(/C=C/c1ccc2c(c1)OCO2)c1ccccc(=O)c1O :: 6.05 µM (inactive)
5) Nc1nc(Cl)cc(NCC2(CO)CC=CC2)n1 :: > 100 µM (inactive)
6) CN(/N=C\c1ccnc2ccccc12)c1ccccc1 :: 17.6 µM (inactive)

---

Test system: 786-0
Experiment: NCI tumour cell line growth inhibition, 48 h
Activity calls are given as the source filed them. Rule as the data show it: active = GI50 up to about 1.1 µM and inactive = higher.
Classes used: T for active, F for inactive

1. Cc1ccc(S(=O)(=O)N2CCN(S(=O)(=O)c3ccc(C)cc3)Cc3ccccc3C2)cc1 :: F
2. CN(C)Cc1cc(C(=O)/C=C/c2ccc([N+](=O)[O-])cc2)cc(CN(C)C)c1O :: F
3. COc1cc(C(=O)C/C(CCC(=O)Nc2ccc(Cl)cc2Cl)=N/NC(=O)C(=O)NN)ccc1O :: F
4. CC(=O)O[C@@]12CO[C@@H]1C[C@@H](O)[C@@]1(C)C(=O)[C@H](O)C3=C(C)[C@@H](OC(=O)[C@H](O)[C@@H](NC(=O)c4ccccc4)c4ccccc4)C[C@@](O)([C@@H](OC(=O)c4ccccc4)C12)C3(C)C (some centres undefined) :: T

---

Tested on: HOP-92
Experiment: NCI tumour cell line growth inhibition, 48 h
Active and inactive are the calls of the source. Cut-off read from the data, not from the text of the source: active = GI50 up to about 1.1 µM and inactive = higher.
Classes used: T = active, F = inactive

1) Cc1cc(C)nc(NS(=O)(=O)c2ccc(NC(=O)c3ccc4nc5ccccc5c(Nc5ccc(S(N)(=O)=O)cc5)c4c3)cc2)n1 :: F
2) C[C@]1(O)O[C@@H]2OCC[C@@H]2C2=C1C(=O)c1ccccc1C2=O :: F
3) C/C(=N/O)c1ccc2c(c1)/C(=N/O)c1cc(/C(C)=N/O)ccc1-2 :: F
4) NC(=O)c1ccc(C(=O)Nc2ccc([As](=O)(O)O)cc2)cc1 :: F
5) Cc1nnc2sc(-c3ccc([N+](=O)[O-])o3)nn12 :: F
6) S=C(CSc1ccccc1)Nc1cccc2ccccc12 :: F
7) CC1=NN(c2nc(N)nc(/C(C#N)=C/c3ccc([N+](=O)[O-])o3)n2)C(C)(C)C1 :: F
8) COc1nc2[nH]ccc2c(=O)[nH]1 :: F
9) Cn1c2ccccc2c2c3c(c4c5ccccc5n(C)c4c21)C(=O)NC3=O :: F
10) CSc1nc(SC)c2c(C#N)n[nH]c2n1 :: F
11) C=CCc1cccc2cc(C(=O)Nc3ccccc3)c(=N)oc12 :: F
12) COc1cc2cc(C(=O)N3CC(CCl)c4ccc(N(C)C)cc43)[nH]c2c(OC)c1OC (stereo unspecified) :: T
13) O=C(N/C(=C\c1ccc2c(c1)OCO2)c1nc2ccccc2[nH]1)c1ccccc1 :: F
14) C=CCC1C(=O)CC2(C)CC(=O)C(CC=C)C12C (stereo unspecified) :: F
15) O=c1c2ccccc2nc(-c2ccccc2)n1O :: F
16) CN(C)c1ccc(C2SCC(=O)N2NS(=O)(=O)c2cccc(C(=O)O)c2)cc1 (stereo unspecified) :: F
17) CC(NC(=O)c1ccccc1)(C(=O)O)C(=O)O :: F
18) CCCCCCCCCCCCCCCCCCOCC(COCCOCC[N+]1(CCCCCC(=O)[O-])CCCC1)Oc1ncccn1 (stereo unspecified) :: T
19) Cc1cc(C)c(C(=O)O)c(SSc2cc(C)cc(C)c2C(=O)O)c1 :: F
20) CCN1C(=O)c2ccccc2C1(O)c1ccc(Cl)cc1 (stereo unspecified) :: F
21) Cn1c(N/N=C/c2ccccc2)nc(-c2ccc3c(c2)OCO3)c(C#N)c1=O :: F
22) O[C@H]1[C@H](O)[C@@H](O)[C@@]2(O)CC[C@@H]1N2 :: F
23) COc1nc(NC2OC(COC(C)=O)C(OC(C)=O)C(OC(C)=O)C2OC(C)=O)c(/N=C/C=N/c2c(NC3OC(COC(C)=O)C(OC(C)=O)C(OC(C)=O)C3OC(C)=O)nc(OC)[nH]c2=O)c(=O)[nH]1 (stereo unspecified) :: F
24) CCOC(=O)CSc1nc(-c2ccccc2)c(C#N)c(=O)[nH]1 :: F
25) Nc1ncnc2c1ncn2[C@@H]1C[C@H](NO)[C@@H](O)[C@H]1O :: F
26) COC(=O)[C@@H]1COC(=O)N1 :: F
27) COc1cc2c(cc1OC)C1CCc3ccccc3CN1CC2 (stereo unspecified) :: F
28) O=CC(O)C(O)C(O)C1CNC(=S)O1 (stereo unspecified) :: F
29) N#Cc1ccccc1NC(=O)c1ccccc1 :: F
30) CSc1c(C#N)c(O)n(-c2ccc(Cl)cc2)c(=O)c1C#N :: F
31) C[N+](C)(C)C1CC([N+](C)(C)C)C2c3ccccc3C21 (stereo unspecified) :: F
32) CC(=O)OCC1OC(n2c(-c3ccc(Cl)cc3)cc(-c3ccccc3)c(C#N)c2=S)C(OC(C)=O)C(OC(C)=O)C1OC(C)=O (stereo unspecified) :: F
33) O=C(CC(=O)N1N=C(c2ccccc2)C(/N=N/c2ccc(S(=O)(=O)CCOS(=O)(=O)O)cc2)C1=O)Nc1ccc(Cl)cc1 (stereo unspecified) :: F
34) C[C@@H]1C[C@H]2[C@@H]3CCC4=CC(=O)C=C[C@]4(C)[C@@]3(Cl)[C@@H](Cl)C[C@]2(C)[C@@]1(O)C(=O)COP(=O)(O)O :: F
35) CCOC(=O)c1cc2c(=Cc3ccc(N(C)C)cc3)c3ccccc3n2[n+]1C :: F
36) CC1(C)CCc2c(ccc(C(=O)/C=C/c3ccc(O)cc3)c2O)O1 :: F
